Assay: NCI Yeast Anticancer Drug Screen. Data for the cln2 rad14 strain (AID 165);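 note: 0% = growth equal to vehicle treated cultures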
Details: S. cerevisiae cln2 rad14 strain, at 50.0 µM, active compounds read high
About 79,000 compounds went through this panel and 15% of them were active in at least one assay; those are over-represented in the sample as a whole.
Recorded growth inhibition by entry
Express it in %; write the number only.

Consider the following illustrative entries.
* N#CN1C2CCC1CC(=O)C2 | 74.8
* CC1C(NNc2ccccc2)Oc2cc3c(cc2C1c1ccccc1O)OCO3 (stereo not given) | 90.8
* COc1ccccc1C(=O)OCC1CCCN2CCCCC12 (stereo not given) | 90.9
* O=C(O)C1CCCCC1c1c2ccc(=O)c(O)c-2oc2c(O)c(O)ccc12 (stereo not given) | 56.2
* C[CH2][Sn]([CH2]C)([O]C(=O)C(OC(C)=O)c1ccccc1)[O]C(=O)C(OC(C)=O)c1ccccc1 (stereo not given) | -23.2

INPUT: Please give measured growth inhibition of the following entry: Cn1c(=O)c(-c2ccccc2)c(N=[N+]=[N-])c2ccccc21
OUTPUT: 86

INPUT: Please give measured growth inhibition of the following entry: COC(=O)C1=C(C)NC(C)=C(C(=O)OCCCN2CCC(c3ccccc3)(c3ccccc3)CC2)C1c1cccc([N+](=O)[O-])c1 (stereo not given)
OUTPUT: 94.2

---

Experiment: NCI Yeast Anticancer Drug Screen. Data for the rad18 strain (AID 177)
Settings: S. cerevisiae rad18 mutant growth inhibition; at 100.0 µM; active compounds read high
Compounds without any hit were thinned out: in the full panel of roughly 79,000, 15% have a hit.
Rule: growth inhibition of 90% or more gives Condition met; anything lower gives Condition not met.

For orientation, consider the following solved cases.
- O=C1OC(=O)C2CCCC3CCCC1C32 (stereo unspecified): Condition met
- O=C1C=CC(=O)N1c1ccc2c(c1)Cc1cc(NC(=O)C(F)(F)F)ccc1-2: Condition not met
- Fc1ccc(NC(=S)SCc2ccc(Cl)c(Cl)c2)cc1F: Condition met
- CC[C@@]1(O)C(=O)OCc2c1cc1n(c2=O)Cc2cc3c(CN(C)C)c(O)ccc3nc2-1: Condition not met

INPUT: Is the recorded value of growth inhibition equal to or greater than 90% for this compound? O=C(/C=C/c1cccc(Br)c1)c1cccs1
OUTPUT: Condition met

---

Experiment: NCI Yeast Anticancer Drug Screen. Data for the rad52 strain (AID 147);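 note: 0% = growth of vehicle-treated control cultures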
Conditions: S. cerevisiae rad52 mutant growth inhibition; at 1.2 µM; active compounds read high
The panel holds about 79,000 compounds, 15% with a hit somewhere; the sample as a whole holds those more often. Activity calls are given as the source filed them. Cut-off read from the data, not from the text of the source: active = growth inhibition above about 70%; inactive = the rest.
QUANTITY KIND: growth inhibition

Consider the following illustrative entries.
* COc1cccc2nc3ccccc3nc12 | 1% (inactive)
* COc1ccc(O)c(/C=N\Nc2ccccc2)c1 | -10% (inactive)
* CSC1=NNC(SC)=NN1 | -13% (inactive)

INPUT: Please give measured growth inhibition of the following entry: C(=C\c1ccccc1)/COc1ccccc1C(N1CCOCC1)n1nc2ccccc2n1 (configuration not stated)
OUTPUT: 3% (inactive)

INPUT: Please give measured growth inhibition of the following entry: O=C1C2C=CC1C1C(=O)OC(=O)C21 (configuration not stated)
OUTPUT: -18% (inactive)

INPUT: Please give measured growth inhibition of the following entry: CCOC(=O)c1cc(-c2ccc(Cl)cc2)c([N+](=O)[O-])n1C
OUTPUT: 12% (inactive)

INPUT: Please give measured growth inhibition of the following entry: CCCCCCCCCCC(=O)Cl
OUTPUT: 13% (inactive)

Where do these numbers come from? They come from PubChem BioAssay (NCI).
